system-tested: reuptake of norepinephrine (NA) by brain synaptosomes (Rattus norvegicus, UniProt Q63380)
Construct: taking prefrontal cortex for the [^3H]5-HT and [^3H]NA reuptake experiment; from tissue; host or cells: rat brain prefrontal cortex synaptosomes
Sequence (Q63380 1-617): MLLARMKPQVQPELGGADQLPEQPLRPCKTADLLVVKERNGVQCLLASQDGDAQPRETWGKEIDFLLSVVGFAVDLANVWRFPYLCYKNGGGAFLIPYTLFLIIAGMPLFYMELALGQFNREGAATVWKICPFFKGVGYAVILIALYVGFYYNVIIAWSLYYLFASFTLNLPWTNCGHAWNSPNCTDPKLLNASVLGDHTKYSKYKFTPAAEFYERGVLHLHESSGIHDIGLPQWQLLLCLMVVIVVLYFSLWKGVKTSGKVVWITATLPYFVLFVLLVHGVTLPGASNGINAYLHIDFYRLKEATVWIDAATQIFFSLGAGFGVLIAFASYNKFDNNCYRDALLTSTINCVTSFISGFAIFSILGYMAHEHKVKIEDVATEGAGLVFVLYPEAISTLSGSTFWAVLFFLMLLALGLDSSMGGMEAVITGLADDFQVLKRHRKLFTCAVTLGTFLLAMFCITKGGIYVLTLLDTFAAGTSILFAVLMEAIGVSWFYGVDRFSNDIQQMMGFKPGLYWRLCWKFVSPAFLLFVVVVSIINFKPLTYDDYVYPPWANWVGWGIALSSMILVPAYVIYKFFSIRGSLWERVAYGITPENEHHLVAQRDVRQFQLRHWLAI
assay: [3H]NA reuptake by rat brain synaptosomes
Format: biochemical
condition-summary: rat prefrontal cortex synaptosomes; 0.1 mmol/L for control drug and drug to be detected
Param label: returns T when Inhibition of reuptake of NA < 70, returns F otherwise, including exact equality.

Illustrative cases are given below, each with its answer.
1) COc1ccc2cc([C@@H](O)[C@H](C)N3CCC(O)(Cc4ccccc4)CC3)ccc2c1Cl: F
2) COc1ccc2cc(C(O)C(C)N3CCC(=Cc4ccccc4)CC3)ccc2c1Cl (stereo not shown): F
3) COc1ccc2cc(C(O)CCN3CCC(=Cc4ccccc4)CC3)ccc2c1Cl (stereo not shown): T
4) COc1ccc2cc([C@@H](O)[C@H](C)N3CCC(OCc4ccccc4)CC3)ccc2c1Cl: T
5) COc1ccc2cc(C(O)C(C)N3CCC(=Cc4ccc(F)cc4)CC3)ccc2c1Cl (stereo not shown): T
6) COc1ccc2cc([C@@H](O)[C@H](C)N3CCC(Cc4ccccc4)CC3)ccc2c1Cl: T

Please examine the following record next.
Ask: Does this compound meet the criterion Inhibition of reuptake of NA < 70? COc1ccc2cc([C@@H](O)[C@H](C)N3CC=C(Cc4ccccc4)CC3)ccc2c1Cl
Reply: T
